Test system: 60 cancer cell lines (NCI 60 cancer cell line series)
Assay details: NCI-DTP in vitro cancer screen, sulforhodamine B (SRB) growth inhibition, 48 hour exposure
Assay type: cell-based, human
Condition context: Breast MCF7/ADRr (CL5002)
Property measured: classification of cell line as Low(1), Medium(2) or High(3) sensitivity to compound

# Compound, Result
rows = [
    ("N.N.[Cl][Pt][Cl] [cisplatin, cis-Diamminedichloroplatinum (II), reference compound]", 2),
    ("O=c1[nH]cc(F)c(=O)[nH]1 [5-Fluorouracil]", 2),
    ("COc1cccc2c1C(=O)c1c(O)c3c(c(O)c1C2=O)C[C@@](O)(C(=O)CO)C[C@@H]3O[C@H]1C[C@H](N)[C@H](O)[C@H](C)O1 [Adrlamycin]", 1),
    ("CN(Cc1cnc2nc(N)nc(N)c2n1)c1ccc(C(=O)N[C@@H](CCC(=O)O)C(=O)O)cc1 [Methotrexate]", 2),
    ("COc1cc([C@@H]2c3cc4c(cc3[C@@H](O[C@@H]3O[C@@H]5CO[C@@H](C)O[C@H]5[C@H](O)[C@H]3O)[C@H]3COC(=O)[C@H]23)OCO4)cc(OC)c1O [Etoposide]", 1),
    ("Sc1ncnc2nc[nH]c12 [6-mercaptopurine]", 2),
    ("COc1cc([C@@H]2c3cc4c(cc3[C@@H](O[C@@H]3O[C@@H]5CO[C@@H](c6cccs6)O[C@H]5[C@H](O)[C@H]3O)[C@H]3COC(=O)[C@H]23)OCO4)cc(OC)c1O [Teniposide]", 1),
]

* * *

System: 60 cancer cell lines (NCI 60 cancer cell line series)
Assay details: NCI-DTP in vitro cancer screen, sulforhodamine B (SRB) growth inhibition, 48 hour exposure
Type: cell-based, human
Condition context: cell line Renal UO-31, CL9004
Where a name gives a salt, the structure may show the parent alone.

# Molecule, sensitivity class Renal UO-31 CL9004
data = [
    ("Sc1ncnc2nc[nH]c12", 2),
    ("CN(Cc1cnc2nc(N)nc(N)c2n1)c1ccc(C(=O)N[C@@H](CCC(=O)O)C(=O)O)cc1 [Methotrexate]", 2),
    ("O=C1c2c(O)ccc(O)c2C(=O)c2c(NCCNCCO)ccc(NCCNCCO)c21", 1),
    ("CC[C@]1(O)C[C@H]2CN(CCc3c([nH]c4ccccc34)[C@@](C(=O)OC)(c3cc4c(cc3OC)N(C=O)[C@H]3[C@@](O)(C(=O)OC)[C@H](OC(C)=O)[C@]5(CC)C=CCN6CC[C@]43[C@@H]65)C2)C1 [Vincristine sulfate]", 1),
]

* * *

Test system: 60 cancer cell lines (NCI 60 cancer cell line series)
Assay details: NCI-DTP in vitro cancer screen, sulforhodamine B (SRB) growth inhibition, 48 hour exposure
Format: cell-based, human
Condition context: Breast MDA-N CL5012
Excerpt: Cancer Cell Line Preparation. Sixty cancer cell lines were obtained from the National Cancer Institute Developmental Therapeutics Program (NCI-DTP). […] No-drug, no-cell and no-growth controls are included. […] From dose response curves based on the SRB data, various parameters can be determined. […] More precisely, the quantity used in the calculation to be described is the potency measure -log{GI50}. […]
Structures can show the parent of a compound that is named as a salt.
The following compounds are listed with their measured classification of cell line as Low(1), Medium(2) or High(3) sensitivity to compound values.
Property measured: classification of cell line as Low(1), Medium(2) or High(3) sensitivity to compound

# Compound, Readout number
records = [
    ("COc1cc([C@@H]2c3cc4c(cc3[C@@H](O[C@@H]3O[C@@H]5CO[C@@H](c6cccs6)O[C@H]5[C@H](O)[C@H]3O)[C@H]3COC(=O)[C@H]23)OCO4)cc(OC)c1O [Teniposide]", 2),
    ("O=c1[nH]cc(F)c(=O)[nH]1", 2),
    ("CC[C@]1(O)C[C@H]2CN(CCc3c([nH]c4ccccc34)[C@@](C(=O)OC)(c3cc4c(cc3OC)N(C=O)[C@H]3[C@@](O)(C(=O)OC)[C@H](OC(C)=O)[C@]5(CC)C=CCN6CC[C@]43[C@@H]65)C2)C1 [Vincristine sulfate]", 1),
]

* * *

Test system: 60 cancer cell lines (NCI 60 cancer cell line series)
Assay details: NCI-DTP in vitro cancer screen, sulforhodamine B (SRB) growth inhibition, 48 hour exposure
Type: cell-based, human
Property measured: sensitivity class Renal UO-31 CL9004

# Test smiles, Readout number
measured = [
    ("OC[C@H]1O[C@@H](n2cnc3c2N=CNC[C@H]3O)C[C@@H]1O", 2),
    ("O=NN(CCCl)C(=O)NCCCl", 1),
    ("Nc1ccn([C@@H]2O[C@H](CO)[C@@H](O)[C@@H]2O)c(=O)n1", 2),
]
